- experimental-details: Acute toxicity per os in mice (LD 50, maximum tolerated dose)
- Type: in vivo
- condition-set: mouse, po, solvent 10% gum, read-out: Approximate maximum tolerated dose
readout-name: MTD (mg/kg)
Just the number please, in mg/kg, no unit attached.

Query: MTD for CCC(C)c1ccc(O)c(Cc2ccc(Cl)cc2)c1 (stereo not shown) ?
Result: 500

* * *

- experimental-details: Acute toxicity per os in mice (LD 50, maximum tolerated dose)
- Format: in vivo
- condition-set: mouse, po, solvent 10% gum, read-out: Approximate LD 50
Would you mind telling me the reported LD50 of each entry?
Just the number please, in mg/kg, no unit attached.

Query: LD50 for CCC(C)c1ccc(O)c(Cc2ccc(Cl)cc2)c1 (centres unmarked) ?
Result: 1000

Query: LD50 for CC(C)(C)c1ccc(O)c(Cc2ccc(Cl)cc2)c1 ?
Result: 1900

* * *

- experimental-details: Acute toxicity per os in mice (LD 50, maximum tolerated dose)
- Type: in vivo
- condition-set: mouse, po, solvent olive oil, read-out: Approximate LD 50
Would you mind telling me the reported LD50 of each entry?
Just the number please, in mg/kg, no unit attached.

Query: LD50 for CC(C)c1ccc(O)c(Cc2ccc(Cl)cc2Cl)c1 [Example 4] ?
Result: 1700

Query: LD50 for CC(C)(C)c1ccc(O)c(Cc2ccc(Cl)cc2Cl)c1 [Example 5, 2-(2',4'-dichlorobenzyl)-4-t-butylphenol] ?
Result: 1700

Query: LD50 for CC(C)(C)c1cc(Cl)c(O)c(Cc2ccc(Cl)cc2Cl)c1 [Example 10] ?
Result: 1500

Query: LD50 for CC(C)(C)c1ccc(O)c(Cc2ccc(Cl)c(Cl)c2)c1 [Example 7, 2-(3',4'-dichlorobenzyl)-4-t-butylphenol] ?
Result: 1500

Query: LD50 for CC(C)c1ccc(O)c(Cc2ccc(Cl)cc2)c1 [Example 2, 2-(4'-chlorobenzyl)-4-isopropylphenol] ?
Result: 1700

Query: LD50 for CCC(C)c1ccc(O)c(Cc2ccc(Cl)c(Cl)c2)c1 (stereo not shown) [Example 8, 2-(3',4'-dichlorobenzyl)-4-s-butylphenol] ?
Result: 2400
